Entry source: PubChem BioAssay

target: Torsin-1A (Homo sapiens) (UniProt O14656); assay: TOR1A wild-type binding on microarray – cell lysate, small-molecule microarray, lysate, 635/667 nm, primary screen (AID 1149); conditions: COS7 hTOR1A-WT lysate, 635 nm fluorescence, higher = more signal
Sequence (O14656 whole entry, looked up): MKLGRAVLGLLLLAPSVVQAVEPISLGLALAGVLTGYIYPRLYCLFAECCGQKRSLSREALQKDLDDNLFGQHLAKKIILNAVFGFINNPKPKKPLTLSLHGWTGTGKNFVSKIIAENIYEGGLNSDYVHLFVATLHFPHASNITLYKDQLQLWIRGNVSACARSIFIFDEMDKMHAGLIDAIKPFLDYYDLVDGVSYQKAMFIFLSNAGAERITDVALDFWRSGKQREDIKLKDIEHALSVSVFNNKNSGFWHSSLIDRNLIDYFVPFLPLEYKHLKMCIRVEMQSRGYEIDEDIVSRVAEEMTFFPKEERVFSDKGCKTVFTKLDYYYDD
Assignment: determine reported composite z-score for the given molecules.
Format: numeric value only, no unit, no commentary.

What value of composite z-score has been recorded for this entry: C=CCC(OC(C)=O)[C@@H]1[C@@H](N(Cc2ccc(-c3cccc(C(F)(F)F)c3)o2)C(=O)Cc2ccc(OC)cc2)c2cc(OCCCO)ccc2N1C(=O)c1ccc2ccccc2c1 (some centres undefined)
-2.27

Need composite z-score, item O=C1NC(=O)C2C1C=CC(C(O)c1ccc(I)cc1)N2Nc1ccc(Cl)cc1Cl (centres undefined)
0.0137

// composite z-score lookup, key: "COc1ccc([C@H]2C[C@H]3C(Br)=C[C@@]2(CO)C(=O)[C@]32CO2)cc1"
-0.361

Report composite z-score for "COCCOC(=O)N1C(=O)[C@@]2(c3cc(C#CC4(O)CCCCCC4)ccc31)[C@H](C(=O)Nc1nc3ccccc3s1)[C@H]1C(=O)O[C@H](c3ccccc3)[C@H](c3ccccc3)N1[C@@H]2c1ccc(OCCO)cc1" please.
0.669

If you can, please state the reported composite z-score value of "COCCOC(=O)N1C(=O)[C@@]2(c3ccccc31)[C@H](C(=O)N1CCc3cc(OC)c(OC)cc3C1)[C@H]1C(=O)O[C@H](c3ccccc3)[C@H](c3ccccc3)N1[C@@H]2c1ccc(O)cc1" .
1.06

// lookup composite z-score for "COCCCNC(=O)[C@@H]1c2ccccc2C(=O)N(Cc2ccccc2)[C@H]1c1ccc(CO)cc1"
0.662

Can you share its composite z-score? I mean this molecule: COc1cc(OC)c(C(O)C2C=CC3C(=O)NC(=O)C3N2Nc2ccccn2)cc1Br (centres undefined)
-0.105

Find the recorded composite z-score belonging to "Cc1ccc([C@H]2C(C(=O)O)=CCN2S(=O)(=O)c2ccc(C)cc2)cc1" and report it.
0.593

Which value of composite z-score has been reported for "NC(=O)[C@@]1(Cc2ccccc2)N=C(c2ccc(OCCCO)cc2)O[C@H]1c1ccccc1" in the records?
1.07

Which measured composite z-score value corresponds to O=C1OCCC=C[C@H]2OC34C=CCN(Cn5nnc6ccccc65)C(=O)[C@H]3N(CCO)C(=O)[C@@H]4C12 (some centres undefined) ?
-1.01

Can you share its composite z-score? I mean this molecule: "O=C1O[C@H](c2ccccc2)[C@H](c2ccccc2)N2[C@H]1[C@@H](C(=O)NC[C@H](O)c1ccccc1)[C@]1(C(=O)Nc3ccc(C#CC4=CCCCC4)cc31)[C@H]2c1ccccc1OCCO"
0.0585

Value lookup for composite z-score; key = "C=C[C@H](C)[C@@H](OC(=O)Nc1ccc(SC)cc1)c1ccc(O)c2ccccc12"
0.163

Any idea what its composite z-score is? The molecule is "COc1ccc([Si](C)(C)[C@H]2[C@H](CC(=O)N3CCC[C@H]3CO)O[C@@]3(C(=O)N(Cc4cccc(N5CCOC5=O)c4)c4ccccc43)[C@@H]2C)cc1"
0.716

Entry "COc1ccc([Si](C)(C)[C@@H]2[C@@H](CCO)O[C@]3(C(=O)N(Cc4cccc(N5CCOC5=O)c4)c4ccccc43)[C@H]2C)cc1" has what composite z-score?
0.531
